System: OVCAR-4
Assay: NCI tumour cell line growth inhibition, 48 h
Calls of active or inactive are those of the source. Rule as the data show it: active = GI50 up to about 1.1 µM and inactive = higher.
valueType: GI50

>  <compound>
COC(=O)C(c1ccc(OC)cc1)N1C(=O)[C@@H](NC(=O)c2ccccc2)[C@H]1[C@@H](C)O (stereo partly drawn)

>  <recordedValue>
> 100 µM (inactive)

$$$$
>  <compound>
CCOC(=O)NNC(=O)NC12CC3CC(CC(C3)C1)C2

>  <recordedValue>
> 100 µM (inactive)

$$$$
>  <compound>
CCCCCNC1=CC(=O)c2ccccc2C1=O

>  <recordedValue>
59.7 µM (inactive)

$$$$

====

Test system: NCI/ADR-RES
Experiment: NCI tumour cell line growth inhibition, 48 h
Calls of active or inactive are those of the source. Rule as the data show it: active = GI50 up to about 1.1 µM and inactive = higher.

>  <compound>
COc1ccccc1-c1cc(O)c2cccnc2n1

>  <GI50>
37 µM (inactive)

$$$$
>  <compound>
O=C(/C=C/c1cccc(Br)c1)c1ccc(Cl)cc1

>  <GI50>
21.7 µM (inactive)

$$$$
>  <compound>
CNC1c2ccccc2C(=O)c2cc3c(cc21)OCCOCCOCCOCCO3 (centres undefined)

>  <GI50>
> 100 µM (inactive)

$$$$
>  <compound>
COc1ccc2c(c1)CCc1cc(C(N)=O)c3nnnn3c1-2

>  <GI50>
> 84.5 µM (inactive)

$$$$

====

System: MDA-N
Assay: NCI tumour cell line growth inhibition, 48 h
The source made the active and inactive calls. Cut-off read from the data, not from the text of the source: active = GI50 up to about 1.1 µM and inactive = higher.
Labels: Y for active, N for inactive

>  <molecule>
O=C(CC(=O)c1ccncc1)c1ccccc1

>  <classLabel>
N

$$$$
>  <molecule>
CCOC(=O)c1ccc(NC2Oc3cc4c(cc3C(c3cc(OC)c(OC)c(OC)c3)C2C)OCO4)cc1 (centres undefined)

>  <classLabel>
Y

$$$$
>  <molecule>
Cc1ccc(C(O)c2cnc(C)n2Cc2ccccc2)cc1 (centres undefined)

>  <classLabel>
N

$$$$
>  <molecule>
Cc1nc2ccccc2n1C(=O)c1c(F)c(F)c(F)c(F)c1F

>  <classLabel>
N

$$$$
>  <molecule>
ClCC1(CCl)COC1

>  <classLabel>
N

$$$$
>  <molecule>
CSc1ccc2c(c1)C(N1CCN(C)CC1)Cc1ccccc1S2 (centres undefined)

>  <classLabel>
N

$$$$
>  <molecule>
CCCCCCCCCCCCCCCCOC[C@@H](COC(c1ccccc1)(c1ccccc1)c1ccccc1)O[PH](=S)OC (some centres undefined)

>  <classLabel>
N

$$$$
>  <molecule>
CNC1c2ccccc2C(=O)c2cc3c(cc21)OCCOCCOCCOCCO3 (centres undefined)

>  <classLabel>
N

$$$$
>  <molecule>
COC(=O)c1cn(CC(O)CCl)nn1 (centres undefined)

>  <classLabel>
N

$$$$
>  <molecule>
COC(=O)C(Cc1c(C2Nc3ccccc3C2CC(NC(=O)CNC(C)=O)C(=O)OC)[nH]c2ccccc12)NC(=O)CNC(C)=O (centres undefined)

>  <classLabel>
N

$$$$
>  <molecule>
[C-]#[N+]C1(C(=O)OCC)CC1

>  <classLabel>
N

$$$$
>  <molecule>
C=CCNC(=O)/C(Cc1cc(Br)c(OC)c(Br)c1O)=N\O

>  <classLabel>
Y

$$$$
>  <molecule>
c1ccc([P+](CCCCCCCC[P+](c2ccccc2)(c2ccccc2)c2ccccc2)(c2ccccc2)c2ccccc2)cc1

>  <classLabel>
N

$$$$
>  <molecule>
Oc1[nH]c(Nc2cc(Cl)cc(Cl)c2)nc2ncnc1-2

>  <classLabel>
N

$$$$
